# Format: in vitro ADME, rat
# CONDITION DESCRIPTION: hydrolysis constant in rat plasma
Decision: log kplasma compared against -2; not below it gives MET, below it gives NOT MET.

**Q:** Can O=C(NC1CCCCC1)Oc1ccc2ccccc2c1 [Compound 13] be said to have log kplasma at or above -2?
**A:** MET

**Q:** log kplasma >= -2 for O=C(NC1CCCCC1)Oc1ccc(-c2ccccc2)cc1 [Compound 12] ?
**A:** MET

**Q:** Please check the record NC(=O)c1cccc(-c2cccc(OC(=O)NC3CCCCC3)c2)c1 [Compound 9] and state if its log kplasma is at or above -2.
**A:** MET

**Q:** Check this molecule for log kplasma at or above -2: O=C(NC1CCCCC1)Oc1cccc(-c2ccccc2)c1 [Compound 1]
**A:** MET

**Q:** Is the recorded value of log kplasma equal to or greater than -2 for this molecule? CCCCNC(=O)Oc1ccc(OCc2ccccc2)cc1 [Compound 8]
**A:** NOT MET

Cited source for all entries: paper PMC3517974
